experimental_target: LRRK2 wild-type (WT) (Homo sapiens)
Sequence (Q5S007 whole entry): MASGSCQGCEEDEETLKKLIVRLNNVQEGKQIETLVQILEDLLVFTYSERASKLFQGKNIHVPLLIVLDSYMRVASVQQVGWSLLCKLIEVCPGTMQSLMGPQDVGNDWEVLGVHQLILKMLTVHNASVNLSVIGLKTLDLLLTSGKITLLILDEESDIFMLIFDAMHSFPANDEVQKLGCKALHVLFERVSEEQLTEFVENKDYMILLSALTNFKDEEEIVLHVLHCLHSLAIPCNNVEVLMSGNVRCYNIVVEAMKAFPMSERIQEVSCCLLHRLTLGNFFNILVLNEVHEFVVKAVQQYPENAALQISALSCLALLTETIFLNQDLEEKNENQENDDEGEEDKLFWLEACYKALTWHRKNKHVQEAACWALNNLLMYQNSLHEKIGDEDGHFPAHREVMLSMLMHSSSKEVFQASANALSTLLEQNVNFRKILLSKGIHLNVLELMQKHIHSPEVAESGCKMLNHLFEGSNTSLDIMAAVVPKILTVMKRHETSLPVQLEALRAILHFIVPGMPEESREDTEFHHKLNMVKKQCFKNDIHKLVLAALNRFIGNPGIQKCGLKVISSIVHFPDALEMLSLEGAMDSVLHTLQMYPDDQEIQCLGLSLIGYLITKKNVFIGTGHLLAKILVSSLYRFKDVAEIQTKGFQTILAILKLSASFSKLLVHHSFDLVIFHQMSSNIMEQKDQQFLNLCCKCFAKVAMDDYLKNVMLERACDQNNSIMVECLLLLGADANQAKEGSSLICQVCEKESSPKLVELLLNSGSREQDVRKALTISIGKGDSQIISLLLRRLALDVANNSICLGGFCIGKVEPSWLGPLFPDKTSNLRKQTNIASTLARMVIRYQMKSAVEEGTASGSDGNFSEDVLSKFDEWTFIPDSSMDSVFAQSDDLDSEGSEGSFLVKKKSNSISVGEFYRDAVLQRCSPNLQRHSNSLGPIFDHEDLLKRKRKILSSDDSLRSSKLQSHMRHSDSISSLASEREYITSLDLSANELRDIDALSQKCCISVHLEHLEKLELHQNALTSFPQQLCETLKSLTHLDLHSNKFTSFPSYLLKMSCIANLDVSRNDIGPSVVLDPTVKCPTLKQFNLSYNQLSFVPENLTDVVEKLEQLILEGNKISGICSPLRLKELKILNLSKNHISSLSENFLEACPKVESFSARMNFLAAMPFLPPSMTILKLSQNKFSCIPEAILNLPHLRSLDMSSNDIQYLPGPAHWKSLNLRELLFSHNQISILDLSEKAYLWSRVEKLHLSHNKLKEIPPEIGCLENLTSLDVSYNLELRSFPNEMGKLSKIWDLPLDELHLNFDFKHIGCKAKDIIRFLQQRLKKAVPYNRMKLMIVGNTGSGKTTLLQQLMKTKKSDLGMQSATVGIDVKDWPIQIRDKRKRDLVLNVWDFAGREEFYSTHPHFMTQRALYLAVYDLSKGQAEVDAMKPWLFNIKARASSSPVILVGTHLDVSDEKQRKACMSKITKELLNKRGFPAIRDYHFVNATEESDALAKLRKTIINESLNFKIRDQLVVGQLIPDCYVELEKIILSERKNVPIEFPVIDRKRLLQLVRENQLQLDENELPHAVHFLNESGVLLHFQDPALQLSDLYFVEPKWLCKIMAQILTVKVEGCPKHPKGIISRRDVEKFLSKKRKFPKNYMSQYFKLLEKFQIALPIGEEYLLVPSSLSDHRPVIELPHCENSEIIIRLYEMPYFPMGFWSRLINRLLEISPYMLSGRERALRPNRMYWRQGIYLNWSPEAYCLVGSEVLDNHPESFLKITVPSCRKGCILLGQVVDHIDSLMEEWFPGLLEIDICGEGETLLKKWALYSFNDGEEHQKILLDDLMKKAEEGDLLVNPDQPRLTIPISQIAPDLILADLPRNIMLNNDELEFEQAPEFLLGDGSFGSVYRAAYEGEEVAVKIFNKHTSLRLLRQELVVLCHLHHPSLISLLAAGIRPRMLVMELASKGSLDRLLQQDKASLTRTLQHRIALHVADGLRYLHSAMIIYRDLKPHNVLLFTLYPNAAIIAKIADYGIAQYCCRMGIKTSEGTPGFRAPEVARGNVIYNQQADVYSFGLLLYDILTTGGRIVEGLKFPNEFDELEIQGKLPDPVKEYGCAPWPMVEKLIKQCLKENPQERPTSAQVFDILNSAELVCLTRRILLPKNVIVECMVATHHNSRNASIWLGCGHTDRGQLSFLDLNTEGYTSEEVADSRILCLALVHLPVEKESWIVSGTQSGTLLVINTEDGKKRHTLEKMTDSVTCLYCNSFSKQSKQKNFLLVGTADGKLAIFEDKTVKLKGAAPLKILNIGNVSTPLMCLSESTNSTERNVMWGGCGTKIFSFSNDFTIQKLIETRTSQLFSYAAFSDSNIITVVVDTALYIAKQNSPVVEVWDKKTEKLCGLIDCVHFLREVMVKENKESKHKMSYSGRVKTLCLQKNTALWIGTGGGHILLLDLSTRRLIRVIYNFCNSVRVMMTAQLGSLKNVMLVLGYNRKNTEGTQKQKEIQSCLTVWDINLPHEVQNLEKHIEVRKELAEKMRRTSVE
protocol_description: LRRK2 wild-type Lanthascreen
Assay type: biochemical
measurement_name: pKi
Answers are plain numbers, as −log10 of the molar value.

Q: Given C[C@@H]1CCCN1c1c(C#N)c2c(N)nc(Nc3cnn(C)c3)nc2n1C , report its pKi on LRRK2 wild-type (WT) (Homo sapiens).
Result: 9.85

###

Test system: MDR1 (P-gp)
protocol_description: MDR1-MDCK permeability and efflux ratio
Assay type: in vitro ADME
condition_set: dog; MDR1-MDCK; assay described in ref. 17; read-out: B:A/A:B (efflux ratio)
I'd be grateful if you could share measured efflux ratio for these entries.
One number for each entry.

Observe how each entry below is paired with its result.
C[C@@H]1C[C@@H](F)CN1c1c(C#N)c2c(N)nccc2n1C    0.66
C[C@@H]1CCCN1c1c(C#N)c2c(N)nc(Nc3cnn(C)c3)nc2n1C    0.8

Q: Annotate the molecule C[C@@H]1C[C@@H](F)CN1c1c(C#N)c2c(N)ncnc2n1C with its measured efflux ratio.
Result: 0.66

###

protocol_description: Plasma protein binding by ultrafiltration
Format: in vitro ADME, non-human primate (NHP)
condition_set: cynomolgus monkey, pH 7.4, NHP plasma, baseline, read-out: Plasma protein binding (converted)
measurement_name: fraction unbound at 10 min

Observe how each entry below is paired with its result.
C[C@@H]1C[C@@H]([18F])CN1c1c(C#N)c2c(N)ncnc2n1C [[^18F]2]    ~0.6
C[C@@H]1CCCN1c1c(C#N)c2c(N)nc(Nc3cnn([11CH3])c3)nc2n1C [[^11C]3]    < 0.15

Now look at this entry.
Q: Annotate the compound C[C@@H]1C[C@@H]([18F])CN1c1c(C#N)c2c(N)nccc2n1C [[^18F]1] with its measured fraction unbound at 10 min.
Result: ~0.45

###

I'd be grateful if you could share measured Papp A→B for these entries.
Tested on: MDR1 (P-gp)
protocol_description: MDR1-MDCK permeability and efflux ratio
Format: in vitro ADME
condition_set: dog, MDCK-MDR1; assay described in ref. 17
Answers are plain numbers, in ×10⁻⁶ cm/s.

Observe how each entry below is paired with its result.
C[C@@H]1CCCN1c1c(C#N)c2c(N)nc(Nc3cnn(C)c3)nc2n1C    17
C[C@@H]1C[C@@H](F)CN1c1c(C#N)c2c(N)ncnc2n1C    44

Q: Given C[C@@H]1C[C@@H](F)CN1c1c(C#N)c2c(N)nccc2n1C , report its Papp A→B on MDR1 (P-gp).
Result: 31

###

experimental_target: LRRK2 G2019S (Homo sapiens, UniProt Q5S007, G2019S)
Sequence (Q5S007 whole entry G2019S): as the sequence (Q5S007 whole entry) above, with G2019S counted along it
protocol_description: LRRK2 G2019S Lanthascreen
Type: biochemical
condition_set: assay described in ref. 16; read-out: LRRK2 Lanthascreen G2019S cKi
I'd be grateful if you could share measured Ki for these entries.
Numbers only, in nM.

C[C@@H]1C[C@@H](F)CN1c1c(C#N)c2c(N)nccc2n1C [Compound 1]    1

Q: Annotate the compound C[C@@H]1C[C@@H](F)CN1c1c(C#N)c2c(N)ncnc2n1C [Compound 2] with its measured Ki.
Result: 0.37

###

I'd be grateful if you could share measured fraction unbound at 10 min for these entries.
protocol_description: Plasma protein binding by ultrafiltration
Format: in vitro ADME, non-human primate (NHP)
condition_set: cynomolgus monkey, pH 7.4, NHP plasma, baseline, read-out: Free fraction in plasma (fP)

C[C@@H]1CCCN1c1c(C#N)c2c(N)nc(Nc3cnn([11CH3])c3)nc2n1C [[^11C]3]    ~0.15

Hi, could you look up fraction unbound at 10 min for each item in my list?
1. C[C@@H]1C[C@@H]([18F])CN1c1c(C#N)c2c(N)ncnc2n1C [[^18F]2]
2. C[C@@H]1C[C@@H]([18F])CN1c1c(C#N)c2c(N)nccc2n1C [[^18F]1]

Result:
~0.6
~0.45
